Target: GST-Bfl-1 (Homo sapiens)
Construct: lacking their C-terminal transmembrane domains (about the last 20 amino acids) (“ΔTM”); made in house; host or cells: XL-1 Blue E. coli, pGEX 4T-1
Sequence (Q16548 1-155 limits assumed): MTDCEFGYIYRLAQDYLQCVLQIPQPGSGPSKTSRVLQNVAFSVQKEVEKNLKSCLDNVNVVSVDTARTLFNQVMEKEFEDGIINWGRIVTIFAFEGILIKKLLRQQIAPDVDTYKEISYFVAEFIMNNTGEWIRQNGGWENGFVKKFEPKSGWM
Assay: Bfl-1/FITC-Bid BH3 competitive fluorescence polarization assay
Assay type: binding
Details: primary HTS hits, MLSCN library (PubChem SIDs), Table 5B
parameter: % Activity (%)
Give the value in % but do not write % after it.

compound	tgt	parameter	unit-annotation	reported-measurement
COc1ccccc1CNC(=O)COC(=O)c1cc(-c2ccco2)nc2ccccc12	GST-Bfl-1 (Homo sapiens)	% Activity	%	70.8
Cc1ccc(C)n1C(Cc1ccccc1)C(=O)O (stereo not drawn)	GST-Bfl-1 (Homo sapiens)	% Activity	%	82.9

Could you now consider this next compound?
IN: Suppose we examine the compound "Cc1csc(N/N=C/c2ccc(O)c([N+](=O)[O-])c2)n1" ; what % Activity value has been reported?
OUT: 57.1
